Test system: MS2 coat protein
Assay: apparent KD of MS2 coat protein; designed switch direction (-1 OFF switch, 1 ON switch): 1; higher = weaker reporter binding
Conditions: input ligand: FMN 200 uM
So I've got a bunch of sequences here, and I need their apparent KD of MS2 coat protein values.
Numbers only, in nM.

RESIDUE_CODES	TARGET_ENTITY	ENDPOINT_LABEL	QUANTITATIVE_READOUT
AAUCGUUUAAUAGGAUAUCGCUAUACAUGAGGAUCACCCAUGUUUACCACGCUGGUUUUUCGUACCGAGAAGGAUUCUGAUGAU [JL JR sub007 mod 8] (Eterna round: R96, puzzle: Same State NG 2)	MS2 coat protein	apparent KD of MS2 coat protein	36.6

Each of the following entries comes with a recorded value; kindly state apparent KD of MS2 coat protein for each.
1. GCUCGAUGAACGUCCUACAUGAGGAUCACCCAUGUUCGUGGGCAGGAUAUUUACAUGCAGAGUGUAGAGAAGGGCCCAUCGAGC [SameState NG3 #64] (Eterna round: R96, puzzle: Same State NG 3)
2. AGCUAGUACGAAGGAUAUACAAACAUGAGGAUCACCCAUGUAUACAUGGUUUGUUGUGACUACAUGUAGAAGGUCGUACUAGCA [SameState NG2 #16] (Eterna round: R96, puzzle: Same State NG 2)
3. UGGUACAUGGGAGGAUAUGGGCAAGGGACAUGAGGAUCACCCAUGUAUUAAAAGCCGAAAGGCAUCUAGAAGGCCCAUGUACCU [JL SSNG1 3.87] (Eterna round: R96, puzzle: Same State NG 2)

[67.8, 362, 14]
